The origin of these recorded values is ChEMBL document CHEMBL1201862.

- Test system: NCI-H522
- protocol: NCI tumour cell line growth inhibition, 48 h
Active and inactive are the calls of the source. Cut-off read from the data, not from the text of the source: active = GI50 up to about 1.1 µM and inactive = higher.
Field 'call' accepts y (active), n (inactive)

Illustrative cases are given below, each with its answer.
Record request — test call for Cc1cc(Cl)ccc1NC(=O)CCCC(=O)C1CCC/C1=N\NC(=O)CC#N (stereo not given)
n

Field: outcome | Entry: CC(C)(C)c1cc(C2=NNC(c3ccccc3)C2)cc(C(C)(C)C)c1O (stereo not given)
n

Lab log entry: O=S(=O)(O)c1ccc(/N=N/c2ccc(/N=N/c3c(O)ccc4ccccc34)cc2)cc1 — outcome as called in the assay?
n

In this assay, the call recorded for COc1cc(C(=O)/C=C/c2ccc(OCCSCCCCCCCCCCSCCOc3ccc(/C=C/C(=O)c4cc(OC)c(OC)c(OC)c4)cc3)cc2)cc(OC)c1OC was what?
n

Recorded test outcome, item CC(C)=C=CP(=O)(O)c1ccccc1
n

***
Look up the recorded call for N#C/C(=C\c1c[nH]c2ccccc12)C(=O)c1ccc(O)c(O)c1 in this test.
n

Recorded call for C=C(CN(C)C)C(=O)c1cc(C)ccc1C ?
y

====

- Tested on: U-251
- protocol: NCI tumour cell line growth inhibition, 48 h
Calls of active or inactive are those of the source. No stated cut-off is given here; in the data, active = GI50 up to about 1.1 µM and inactive = higher.
parameter measured: GI50

Any idea what GI50 came out for CC(C)NC(=O)OCc1c(COC(=O)NC(C)C)c(-c2cc[n+](COC(=O)C(C)C)cc2)n2c1CCC2 on U-251?
> 100 µM (inactive)

What is its GI50 for U-251? Entry: O=C1/C(=C/c2ccc(O)cc2)CC/C1=C\c1ccc(O)cc1
53.1 µM (inactive)

Query the reported GI50 for U-251; item: CC(=O)CC1(O)C(=O)c2c(Br)sc(Br)c2C1=O
24 µM (inactive)

Continue with the molecule presented below.
State its GI50 on U-251: Nc1nc(-c2ccccc2)c(-c2ccccc2)c(-c2nc(N)nc(-c3ccccc3)c2-c2ccccc2)n1
> 100 µM (inactive)

====

In this section we review reported GI50 values for a set of molecules.
- Test system: OVCAR-8
- protocol: NCI tumour cell line growth inhibition, 48 h
Active and inactive are the calls of the source. Rule as the data show it: active = GI50 up to about 1.1 µM and inactive = higher.

Field: example entries. Status: answers known.
Could you tell me which GI50 is on file for O=C(Nc1nc2ncn(CCOC(=O)c3ccccc3)c2c(=O)[nH]1)c1ccccc1 ?
33.3 µM (inactive)

Which GI50 is listed for Cc1ns/c(=N\C(=S)N(C)C)n1C ?
> 100 µM (inactive)

Reported GI50, molecule CC(C(=O)N1C(=O)N(C(=O)C(C)C(O)c2ccccc2)C2CCCCC21)C(O)c1ccccc1 (stereo unspecified) : ____
88.3 µM (inactive)

---
Record request: GI50 value, item COc1ccc2nc3ccc(OC)cc3c([S+]([O-])CCCl)c2c1 (stereo unspecified)
2.67 µM (inactive)

Entry O=[N+]([O-])c1ccc2nc3c(nc2c1)-c1c2ccccc2cc2cccc-3c12 : reported GI50 = ?
7.55 µM (inactive)

Can you share its GI50? I mean this molecule: O=c1[nH]nc(-c2ccccc2)c2[nH]c3c(c12)Cc1ccccc1-3
6.61 µM (inactive)

====

- System: SF-268
- protocol: NCI tumour cell line growth inhibition, 48 h
Calls of active or inactive are those of the source. Rule as the data show it: active = GI50 up to about 1.1 µM and inactive = higher.
// allowed return values: class 1 for active, class 0 for inactive

Which outcome was assigned to COc1ccc(OC)c(N2C(=O)CSC2c2cc(OC)c(OC)c(OC)c2)c1 (stereo not given) in this test?
class 0

So what was the verdict on COc1cc2c(cc1OCCCC(=O)Nc1cc(C(=O)Nc3cc(C(=O)Nc4cc(C(=O)NCCCN(C)C)n(C)c4)n(C)c3)n(C)c1)N=C[C@@H]1CCCN1C2=O in this test?
class 0

# lookup: test call for COc1ccc([C@@H]2OC(=O)C3C2C(=O)O[C@H]3c2ccc(OC)c(OC)c2)cc1OC (stereo not given in full)
class 0

Hi team, can someone confirm the assay call for O=P(O)(Cc1ccccc1)OCC1(O)OCC(O)C(O)C1O (stereo not given) ?
class 0

What did this assay record as the result for O=S(=O)(Nc1nc2ccccc2nc1N1CCCCCC1)c1ccccc1 ?
class 0

For this molecule, state the assay outcome: Cc1cccc(C)c1NC(=O)C(=O)CC(=O)c1cccc([N+](=O)[O-])c1
class 0

Continuing:
Field: outcome | Entry: CC1=CC(=O)CC(C)(C)C1(O)/C=C/C(C)=C/C(=O)O (stereo not given)
class 0

Assay outcome for Cc1cccc2[n+]1[C@H]1[C@H]([C@@H]3O[C@H]1c1ccccc13)[S+]([O-])N2 (stereo not given in full) : what was it?
class 0

Hey, what did the test say about COC1OC2COC(C)(C)OC2C2OC(C)(C)OC12 (stereo not given) ?
class 0

====

- Tested on: MOLT-4
- protocol: NCI tumour cell line growth inhibition, 48 h
Activity calls are given as the source filed them. Rule as the data show it: active = GI50 up to about 1.1 µM and inactive = higher.
Outcomes you can answer with include only these: active, inactive

Worked set:
What outcome does the record of this test show for Cc1cc(NCCCCCCCNc2cc(C)nc3cc(N)ccc23)c2ccc(N)cc2n1 ?
inactive

What call does the record list for Oc1c(Br)cc(Br)cc1CN(Cc1cc(Br)cc(Br)c1O)C1CCCCC1 ?
inactive

# fetch the recorded call for CC(C)(C)c1cc(C2=NNC(c3ccccc3)C2)cc(C(C)(C)C)c1O (stereo not given) here
inactive

In this assay, the call recorded for O=C(NCCNCCCNC(=O)c1cc(-c2ccccc2)nc2ccccc12)c1cccc(O)c1O was what?
active

---
Look up the recorded call for c1ccc2c(c1)Sc1ccccc1N2C1CN2CCC1CC2 (stereo not given) in this test.
inactive

# outcome recorded in this test, key = Cc1cc2c(c(C(=O)O)c1C)-c1cccc(Cl)c1C2=O
inactive

# fetch the recorded call for COc1ccc(NC(=O)COC(=O)c2cccc3c(=O)c4ccccc4[nH]c23)cc1 here
inactive

====

- Tested on: K562
- protocol: NCI tumour cell line growth inhibition, 48 h
Active and inactive are the calls of the source. Cut-off read from the data, not from the text of the source: active = GI50 up to about 1.1 µM and inactive = higher.
Use one of these outcomes when replying: active, inactive

Before answering, review these 5 worked examples.
I would be grateful if you could indicate the recorded call for COc1cc(C2SCC(=O)N2c2ccccn2)cc(OC)c1OC (configuration not stated) .
inactive

For this compound, state the assay outcome: COc1ccccc1NC(=O)CC(=O)NNCC(=O)Nc1nnc(-c2ccccc2)o1
inactive

Could you kindly confirm the outcome this assay logged for COC(=O)c1sc2ncc3c(c2c1N)CC(C)CC3 (configuration not stated) ?
inactive

Hi team, can someone confirm the assay call for COC(=O)c1cc(C(=O)OC)cc(-c2ccc3c(c2)-c2nc4c(c(-c5ccc(OC)cc5)c2CC3)CCc2ccc(-c3cc(C(=O)OC)cc(C(=O)OC)c3)cc2-4)c1 ?
active

What call does the record list for CCN(CC)c1ccc2cc(C(N)=S)c(=N)oc2c1 ?
inactive

Further cases:
Given CCOc1ccc(NC(=O)CCC(=O)NN)cc1 , state the outcome it received in this test.
inactive

// return assay outcome for COC(=O)/C(=N\NC(N)=O)C(C(=O)C=C(C)C)C(=O)C(=O)Nc1ccc(Cl)c(Cl)c1 (configuration not stated)
inactive

Recorded test call requested for Cc1cc(C)nc(NS(=O)(=O)c2ccc(NNc3c4ccccc4nc4c(C(=O)Nc5ccc(S(=O)(=O)N=C(N)N)cc5)cccc34)cc2)n1
inactive

Give the logged outcome of this assay for the following compound: Cn1ncc2c(c1=O)Nc1ccccc1S2(=O)=O
inactive

// param item: Cc1c(S(=O)(=O)N/C(=N\O)Nc2ccc(Cl)cc2)sc2ccc(Cl)cc12 ; yields the recorded call
inactive

What outcome does the record of this test show for COc1ccc([C@]23CCC4(OCC(C)(C)CO4)[C@H]4CON(O[C@H](O[C@@H]5CCCCC5C(C)(C)c5ccccc5)C2)[C@@H]43)cc1OC (some centres not stated) ?
inactive

Which result was noted for this compound in the test: COc1ccc(C(C#N)NNC(=O)Cc2ccccc2)cc1OC (configuration not stated)
inactive

====

- Tested on: NCI-H226
- protocol: NCI tumour cell line growth inhibition, 48 h
The source made the active and inactive calls. Cut-off read from the data, not from the text of the source: active = GI50 up to about 1.1 µM and inactive = higher.
parameter measured: GI50

Any idea what its GI50 is? The compound is Cc1cccc(C)c1NC(=O)C(=O)CC(=O)c1cccc([N+](=O)[O-])c1
> 100 µM (inactive)

Looking for the measured GI50 of Cc1ccc2c(=O)c3c(O)c4c(cc3n(C)c2c1)OC(C)(C)C=C4 , can you help?
> 10 µM (inactive)

Which value of GI50 has been reported for COC(=O)c1sc2ncc3c(c2c1N)CC(C)CC3 (stereo not given) in the records?
> 100 µM (inactive)

Could you share which GI50 value was measured for CC1=NN(c2cccc(Cl)c2)C2(C1)SCC(=O)N2c1nc2ccccc2s1 (stereo not given) ?
11.6 µM (inactive)

More entries:
Need GI50, item NC(=S)N1N=C2c3ccccc3CC[C@H]2[C@@H]1c1ccc(Cl)cc1
16.7 µM (inactive)

====

- System: UACC-257
- protocol: NCI tumour cell line growth inhibition, 48 h
Structures can show the parent of a compound that is named as a salt. Activity calls are given as the source filed them. Rule as the data show it: active = GI50 up to about 1.1 µM and inactive = higher.
# output must be one of T = active, F = inactive

Test call for this compound, please: COc1ccc(/C=C/C(=O)CC(=O)/C=C/c2ccc(OC)cc2)cc1
F

Recorded test call requested for CNC(=S)OCCC(C)CCCC(C)C (stereo not drawn)
F

Field: outcome | Entry: Brc1ccc(/C=N/C23CC4CC(CC(C4)C2)C3)cc1
F

Next:
What call does the record list for S=c1oc(CCCCCCCCc2nn(CNc3ccc(Cl)cc3)c(=S)o2)nn1CNc1ccc(Cl)cc1 ?
F

Tell me the recorded outcome of this test for Cc1cccc2[n+]1[C@H]1[C@H]([C@@H]3O[C@H]1c1ccccc13)[S+]([O-])N2 (stereo partly drawn) .
F

// return assay outcome for CC(C)(C)c1cc(C2=NNC(c3ccccc3)C2)cc(C(C)(C)C)c1O (stereo not drawn)
F

Field: outcome | Entry: O=C(Nc1nc2ccc([N+](=O)[O-])cc2s1)C(=O)C(C(=O)c1ccccc1F)C1OC(=O)c2ccccc21 (stereo not drawn)
F

Entry O=C(Cc1nc2ccccc2[nH]c1=O)c1c[nH]c2ccccc12 : call = ?
F

Please state the recorded outcome for this compound: N#C/C(=C\c1cc2ccccc2c2ccccc12)c1ccccc1
F

State the result this test recorded for CCOC(=O)C1=C(C(=O)OCC)C2c3ccccc3C=CN2C(C(=O)OCC)=C(SC)S1 (stereo not drawn) .
F

For CCN(CC)CCNc1ccc(C)c2sc3ccccc3c(=O)c12 [LUCANTHONE HYDROCHLORIDE] , which call appears in the assay record?
F

Which outcome was entered for the compound Cc1cccc(Nc2cn(CCOc3ccccc3)c(=O)[nH]c2=O)c1 in this test?
F

Which outcome did this test record for the compound COc1ccc(/C=C2\CCC(CNc3ccc(S(N)(=O)=O)cc3)C2=O)cc1 (stereo not drawn) ?
F

Query: recorded result category for O=C(O)/C=C/C(=O)O in this test
F

Write down the call the test reported for this compound. Item: CC(C)c1ccccc1SCc1cc(=O)cc(CSc2ccccc2C(C)C)o1
F

Query: recorded result category for COc1ccc(C(=O)/C(Br)=C/C(=O)O)cc1 in this test
F

Which outcome was assigned to COc1ccc(COCC[C@H](C)OC2OC(CO)C(O)C(O)C2O)cc1 (stereo partly drawn) in this test?
F

Recorded test call requested for NC(=S)N/N=C1\c2ccccc2CCC1CCC1(O)CCc2ccccc2C1=O (stereo not drawn)
F

Assay result, entry COc1ccc2nc3ccc(OC)cc3c([S+]([O-])CCCl)c2c1 (stereo not drawn) — outcome?
F

Fill in: this test's call for COc1cc(OC)c2c(c1-c1ccc(C)cc1)CC(C)N(Cc1ccccc1)[C@H]2C (stereo partly drawn) is ___
F

Name the outcome recorded for COc1ccc(CCN2CCN(CCCc3ccccc3)CC2)cc1 in the assay.
F
